Measured growth, listed per entry.
# Test system: SK-MEL-2 melanoma
# procedure_summary: NCI-60 one-dose screen, 48 h (100 = growth as untreated, 0 = no growth, -100 = all killed)
# settings: 10 µM unless noted
About 83,000 compounds went through this panel and 20% of them were active in at least one assay; those are over-represented in the sample as a whole.
Number in %, nothing else.

[
  {
    "molecule": "CC(C)=CCC[C@](C)(O)C1CC[C@]2(C)[C@@H]1CC[C@@H]1[C@@]3(C)CC/C(=N\\OCCC#N)C(C)(C)[C@@H]3CC[C@]12C (some centres undefined)",
    "growth / %": 100
  }
]

Ask: Need growth, item N#Cc1c(-c2ccc(Cl)cc2)nc(NN=Cc2cccc(Cl)c2)nc1N1CCOCC1
Result: 96.5

Ask: Entry [2H]C([2H])([2H])Oc1c(F)cccc1/C=C/C(=O)/C=C(O)/C=C/c1cccc(F)c1OC([2H])([2H])[2H] please
Result: 101

Ask: Entry O=C(Nc1ncc(Cc2cc(C(F)(F)F)ccc2Cl)s1)C(=S)N1CCOCC1 please
Result: 104

* * *

# System: UACC-62 melanoma
# procedure_summary: NCI-60 one-dose screen, 48 h (100 = growth as untreated, 0 = no growth, -100 = all killed)
# settings: 10 µM unless noted
The panel holds about 83,000 compounds, 20% with a hit somewhere; the sample as a whole holds those more often.
Measured growth, listed per entry.
Number in %, nothing else.

[
  {
    "compound": "O=[N+]([O-])c1ccc(Oc2cccc3c(Oc4ccc([N+](=O)[O-])cc4[N+](=O)[O-])cccc23)c([N+](=O)[O-])c1",
    "measured_endpoint": "growth",
    "readout_number": 76.5
  }
]

Ask: Short answer please: growth, UACC-62 melanoma, entry CCOC(=O)c1c(C)n2c(=O)cc(C)c3c(OC(C)=O)c(OC(C)=O)cc1c32
Result: 76.2

Ask: Entry CNC1=C([N+](=O)[O-])C(c2ccc(OC)cc2)C(C#N)=C(c2ccc[nH]2)O1 (stereo not given) please
Result: 91.8

Ask: Entry COc1cccc(/C=C2\CCc3ccccc3C2=O)c1 please
Result: 80.1

Ask: Entry COc1cc(C(=O)n2nc(NCCCc3ccccc3)c3cc(N)ccc32)cc(OC)c1OC please
Result: 92.2

Ask: Entry CC(Cc1cccc2ccccc12)C(N)=O (stereo not given) please
Result: 98.8

Ask: Entry CCCn1cnc2c(c1=N)C(c1ccc(Cl)cc1)c1sc3c(F)cccc3c1O2 (stereo not given) please
Result: 85.4

Ask: Entry Cc1ccc(OCCOCCOCCOCCOc2ccc(C)n(O)c2=S)c(=S)n1O please
Result: -0.19

Ask: Entry Oc1ccc(Cc2ccc(O)c3ncccc23)c2cccnc12 please
Result: 1.18

Ask: Entry COC(=O)[C@@H](Cc1c[nH]c2ccccc12)NC[C@@H](O)CN1C(=O)/C(=C\c2cc(OC)c(OC)c(OC)c2)c2ccccc21 please
Result: 49.8

* * *

# Tested on: NCI-H322M lung
# procedure_summary: NCI-60 one-dose screen, 48 h
# settings: 10 µM unless noted
The panel holds about 83,000 compounds, 20% with a hit somewhere; the sample as a whole holds those more often. Activity calls are given as the source filed them. The calls were made as follows: active = growth percent below 10; inactive = the rest.
Choose one outcome from this list and give only that: active, inactive

Here's what some known entries look like.
[
  {
    "compound": "Cc1ccc(-c2nc(C#N)c(S(=O)(=O)n3nc(C)cc3N)o2)cc1",
    "discrete_label": "inactive"
  },
  {
    "compound": "CCOc1ccc(-c2cc(C3(S(=O)(=O)c4ccc(C)cc4)CC=CC3)on2)cc1",
    "discrete_label": "inactive"
  }
]

Ask: Hi team, can someone confirm the assay call for C=C(c1ccc(OC)c(/C=C/C(=O)c2cc(OC)c(OC)c(OC)c2)c1)c1cc(OC)c(OC)c(OC)c1 ?
Result: inactive

Ask: Entry Nc1ccc(Cl)c2c(=O)c3ccccc3[nH]c12 please
Result: inactive

Ask: Entry Nc1nc(Nc2ccc([N+](=O)[O-])cc2O)nc(C(Cl)(Cl)Cl)n1 please
Result: inactive

Ask: Entry N#Cc1c(-c2ccc(Cl)cc2)nc(NN=Cc2cccc(Cl)c2)nc1N1CCOCC1 please
Result: inactive

Ask: Entry CC(=O)OCC(=O)O[C@@H]1C[C@]2(C(C)C)O[C@@]1(C)[C@@H]1CC[C@@H](C)[C@H]1[C@@H]2OC(=O)/C=C/c1ccccc1 please
Result: inactive

Ask: Entry CCOC(=O)C1=C(C)N(C)C(=O)N(C)C1c1ccccc1 (centres undefined) please
Result: inactive

Ask: Entry Clc1ccc2c(NCCCn3cnc4c(N5CCCC5)nc(Cl)nc43)ccnc2c1 please
Result: inactive

Ask: Entry COc1ccc(-c2cn(Cc3ccc4c(Br)cc(Br)c(O)c4n3)nn2)cc1 please
Result: inactive

* * *

# System: CAKI-1 renal
# procedure_summary: NCI-60 one-dose screen, 48 h
# settings: 10 µM unless noted
About 83,000 compounds went through this panel and 20% of them were active in at least one assay; those are over-represented in the sample as a whole. The source made the active and inactive calls. Rule for the calls: active = growth percent below 10; inactive = the rest.
Choose one outcome from this list and give only that: Y (active), N (inactive)

[
  {
    "molecule": "CC(=O)Oc1ccccc1C(=O)N(Cc1ccc2c(Cl)cc(Cl)c(O)c2n1)c1ccccc1",
    "discrete_label": "N"
  },
  {
    "molecule": "CCN1C(=O)N(CC)C2C1NC(=S)N2/N=C/C=C/c1ccccc1 (centres undefined)",
    "discrete_label": "N"
  }
]

Ask: Hi team, can someone confirm the assay call for FC(F)(F)c1cccc(-c2nnn(Cc3cc(-c4cccc(Cl)c4)no3)n2)c1 ?
Result: N

* * *

# Tested on: MDA-MB-435 melanoma
# procedure_summary: NCI-60 one-dose screen, 48 h (100 = growth as untreated, 0 = no growth, -100 = all killed)
# settings: 10 µM unless noted
This is part of a sample that, as a whole, favours compounds with a hit. Of some 83,000 tested, about 20% had one in any assay. Calls of active or inactive are those of the source. Rule for the calls: active = growth percent below 10; inactive = the rest.
measured_endpoint: growth

Guide cases for growth, answers given:
[
  {
    "compound": "Cc1ccccc1NC(=O)Cn1cc(CN2CCN(c3ccnc4cc(Cl)ccc34)CC2)nn1",
    "tgt": "MDA-MB-435 melanoma",
    "growth": "99.4% (inactive)"
  },
  {
    "compound": "COC(=O)c1ccc(-n2cc(CCCOS(=O)(=O)c3ccc(F)cc3)nn2)cc1",
    "tgt": "MDA-MB-435 melanoma",
    "growth": "97.3% (inactive)"
  },
  {
    "compound": "CCNc1nc(-c2ccc(Cl)c(OC)c2)c(-c2ccnc(NCCNS(=O)(=O)c3ccc(Cl)cc3)n2)s1",
    "tgt": "MDA-MB-435 melanoma",
    "growth": "6.21% (active)"
  },
  {
    "compound": "CN1CCN(Cc2ccc(NC(=O)c3cncc(C#Cc4c(N)ncc5cc(F)ccc45)c3)cc2C(F)(F)F)CC1",
    "tgt": "MDA-MB-435 melanoma",
    "growth": "26.4% (inactive)"
  },
  {
    "compound": "C#CCOc1cccc(-c2ncnc3cc(NC(=O)CCl)ccc23)c1",
    "tgt": "MDA-MB-435 melanoma",
    "growth": "-24.7% (active)"
  },
  {
    "compound": "NS(=O)(=O)Oc1cccc(-c2nc3sccn3c2-c2ccccc2)c1",
    "tgt": "MDA-MB-435 melanoma",
    "growth": "3.29% (active)"
  }
]

Ask: Need growth, item CN(C)CCOc1nc2c3cc([N+](=O)[O-])ccc3nn2c2ccccc12
Result: 82.4% (inactive)

Ask: Entry O=C(NCCN1CCOCC1)c1cncnc1Nc1ccc2c(ccn2Cc2ccccn2)c1 please
Result: 99.9% (inactive)

Ask: Entry O=C1C(Nc2ccc(Br)cc2)=C(I)C(=O)c2ncccc21 please
Result: -79% (active)

Ask: Entry CC(C)c1nc(N(C)S(C)(=O)=O)nc(-c2ccc(F)cc2)c1/C=C/C(=O)C[C@@H](O)CC(=O)O please
Result: 103% (inactive)

Ask: Entry CCN(CC)CCCNc1cc(OC)cc2cccnc12 please
Result: 115% (inactive)

Ask: Entry CN1CCN(Cn2nc(-c3cc(Cl)cc(Cl)c3Cl)oc2=S)CC1 please
Result: 88.9% (inactive)

Ask: Entry CSc1nn2c(-c3cc4cc(Br)ccc4oc3=O)ccnc2c1C#N please
Result: 101% (inactive)

Ask: Entry O=C1c2ccccc2C(=O)c2cc(Cn3c[n+](Cc4ccc5ccccc5c4)c4ccccc43)ccc21 please
Result: 38.4% (inactive)

Ask: Entry Cc1ccc(C2=Nc3c(N)nc(N)nc3NC(c3cccc(Nc4ccnc5cc(C(F)(F)F)ccc45)c3)C2)cc1 (configuration not stated) please
Result: -40.1% (active)

Ask: Entry COc1ccc(-c2ccc(-c3ccc(C(=N)N)o3)o2)cc1 please
Result: -65.4% (active)

Ask: Entry CNC(=O)c1cc(Oc2cccc3nc(NC(=O)Nc4ccc(F)cc4F)ccc23)ccn1 please
Result: 32.6% (inactive)

Ask: Entry CC(CN)[C@@H]1CC[C@]2(CO)CC[C@]3(C)[C@H](CC[C@@H]4[C@@]5(C)CCC(NCCO)C(C)(C)[C@@H]5CC[C@]43C)[C@@H]12 (some centres not stated) please
Result: 31% (inactive)

Ask: Entry O=C(NC1CCCCCC1)c1ccc2c(=O)n3c(nc2c1)CCCCC3 please
Result: 112% (inactive)

Ask: Entry CC(=O)O[C@H]1C[C@@]2(C)[C@@H](C[C@@H](O)[C@H]3[C@@]4(C)CC[C@H](N5CCCC5)[C@@H](C)[C@@H]4CC[C@@]32C)/C1=C(\CCC=C(C)C)C(=O)O please
Result: 99.7% (inactive)

Ask: Entry COc1ccc(/C=C\c2cc(OC)c(OC)c(OC)c2)cc1OCC(=O)Nc1nc2ccccc2s1 please
Result: -2.64% (active)

Ask: Entry Cc1c(C(=O)C(SC(=S)N2CCOCC2)SC(=S)N2CCOCC2)nnn1-c1ccc([N+](=O)[O-])cc1 please
Result: 105% (inactive)

Ask: Entry COc1ccc(Nc2nc(Nc3cc(C)[nH]n3)c3cc(OC)c(OC)cc3n2)cc1 please
Result: -97.5% [20 µM] (active)

Ask: Entry COc1ccc(S(=O)(=O)Oc2ccc(-c3sc4cc(OS(=O)(=O)c5ccc(OC)cc5)ccc4c3C(=O)c3ccc(OCCN4CCCCC4)cc3)cc2)cc1 please
Result: 105% (inactive)

Ask: Entry COc1ccccc1NC(=O)n1c(=O)cc(C)c2ccc(O)cc21 please
Result: 105% (inactive)

Ask: Entry Cc1ccc(C2(C)NC(=O)N(CC(=O)Nc3cccc(C)c3)C2=O)cc1 (configuration not stated) please
Result: 108% (inactive)

Ask: Entry c1ccc2c(-c3cnn4cc(-c5ccc(N6CCNCC6)cc5)cnc34)ccnc2c1 please
Result: -99.4% (active)
